test.summary: Lipophilicity, log P of the compound by HPLC based shake flask method
Type: physicochemical
We use 2 as the dividing line for logP: on or above the line is satisfied, below is not satisfied.

Incoming: Exam item: decide whether the reported logP for "CC(C)C/C(=N\C#N)N(C)Cc1ccc(Cl)nc1" is at least 2.
Outgoing: not satisfied

====

This listing pairs molecules with measured log(1/MLD).
Tested on: Periplaneta americana
test.summary: Insecticidal activity against adult male Periplaneta americana (American cockroach) dosed through injection into abdomen assessed as mortality measured 24 hr post dose in presence of 50 ug metabolic inhibitor PB and 50 ug NIA
Type: functional
The reply should be a number, written without any unit.

>  <line.notation>
C/C(=N\C#N)N(C)Cc1ccc(Cl)nc1

>  <study.target>
Periplaneta americana

>  <assay.value>
9.68

$$$$
>  <line.notation>
CCCCC/C(=N\C#N)N(C)Cc1ccc(Cl)nc1

>  <study.target>
Periplaneta americana

>  <assay.value>
6.8

$$$$
>  <line.notation>
C=CCN(Cc1ccc(Cl)nc1)/C(C)=N/C#N

>  <study.target>
Periplaneta americana

>  <assay.value>
8.07

$$$$
>  <line.notation>
CCC/C(=N\C#N)N(C)Cc1ccc(Cl)nc1

>  <study.target>
Periplaneta americana

>  <assay.value>
7.77

$$$$
>  <line.notation>
C/C(=N\C#N)N(Cc1ccccc1)Cc1ccc(Cl)nc1

>  <study.target>
Periplaneta americana

>  <assay.value>
7.6

$$$$

Incoming: Which log(1/MLD) is reported for this molecule? "CCCN(Cc1ccc(Cl)nc1)/C(C)=N/C#N"
Outgoing: 8.34

====

test.summary: Lipophilicity, log P of the compound by HPLC based shake flask method
Type: physicochemical
This listing pairs compounds with measured logP.
The reply should be a number, written without any unit.

Known logP results, listed for orientation:
>  <compound>
CCCCCN(Cc1ccc(Cl)nc1)/C(C)=N/C#N

>  <logP>
2.37

$$$$
>  <compound>
O=[N+]([O-])/N=C1\NCCN1Cc1ccc(Cl)nc1 [IMIDACLOPRID]

>  <logP>
0.6

$$$$
>  <compound>
CCCCN(Cc1ccc(Cl)nc1)/C(C)=N/C#N

>  <logP>
2.13

$$$$
>  <compound>
CCCC/C(=N\C#N)N(C)Cc1ccc(Cl)nc1

>  <logP>
1.87

$$$$
>  <compound>
C/C(=N\C#N)N(Cc1ccccc1)Cc1ccc(Cl)nc1

>  <logP>
2.11

$$$$
>  <compound>
C/C(=N\C#N)NCc1ccc(Cl)nc1

>  <logP>
1.07

$$$$
>  <compound>
CN(Cc1ccc(Cl)nc1)/C(Cc1ccccc1)=N/C#N

>  <logP>
2.13

$$$$
>  <compound>
C/C(=N\C#N)N(Cc1ccc(Cl)nc1)C(C)C

>  <logP>
1.46

$$$$
>  <compound>
CN(Cc1ccc(Cl)nc1)/C(=N/C#N)c1ccccc1

>  <logP>
1.86

$$$$
>  <compound>
CCC/C(=N\C#N)N(C)Cc1ccc(Cl)nc1

>  <logP>
1.55

$$$$

Incoming: Which logP is reported for this compound? "CC(C)/C(=N\C#N)N(C)Cc1ccc(Cl)nc1"
Outgoing: 1.39

Incoming: Which logP is reported for this compound? "CCN(Cc1ccc(Cl)nc1)/C(C)=N/C#N"
Outgoing: 1.19

Incoming: Which logP is reported for this compound? "CCCCC/C(=N\C#N)N(C)Cc1ccc(Cl)nc1"
Outgoing: 2.3

Incoming: Which logP is reported for this compound? "CC/C(=N\C#N)N(C)Cc1ccc(Cl)nc1"
Outgoing: 1.12

Incoming: Which logP is reported for this compound? "CCCN(Cc1ccc(Cl)nc1)/C(C)=N/C#N"
Outgoing: 1.62

Incoming: Which logP is reported for this compound? "C=CCN(Cc1ccc(Cl)nc1)/C(C)=N/C#N"
Outgoing: 1.56

Incoming: Which logP is reported for this compound? C/C(=N\C#N)N(C)Cc1ccc(Cl)nc1 [ACETAMIPRID]
Outgoing: 0.83
